The reported numbers originate from PubChem BioAssay (NCI).

Provide the reported TGI of each item.
test system: NCI/ADR-RES ovarian; experiment: NCI tumour cell line growth inhibition, 48 h
Please give a number only; it is taken to be in µM.

Inquiry: Read the entry Cc1nc(N)sc1N=Nc1ccccc1Br and write its reported TGI.
Reply text: 72.5

Inquiry: Could you please provide reported TGI for C=C1CC(C#N)(C#N)[C@H]2C3CCCC3C[C@@H]12 (stereo not given in full) (tested in a mixture with another compound) ? Thanks!
Reply text: 48.2

###

tested on: HT29 colon; assay: NCI tumour cell line growth inhibition, 48 h; in the data active = GI50 below about 0.43 µM; inactive = the rest
Log the outcome using a class from active, inactive

Inquiry: Please state the recorded outcome for this molecule: CNCCOC(=O)/C=C1\CC[C@H]2[C@@H]([C@@H](O)C(=O)[C@@H]3[C@]2(C)CC[C@H](O)[C@]3(C)C(=O)OC)[C@H]1C
Reply text: inactive

Inquiry: Which outcome was assigned to C[C@@H]1C[C@@H]([C@@H](CC2CC(=O)NC(=O)C2)OC(=O)CC(=O)c2ccccc2)C(=O)[C@@H](C)C1 in this test?
Reply text: inactive

Inquiry: What call does the record list for O=c1oc2ccc(-c3ccc(F)cc3F)cc2c(=O)n1-c1cccc(C(F)(F)F)c1 ?
Reply text: inactive

Inquiry: Given CCOC(=O)Nc1cc2c(c(N)n1)N=C(c1ccccc1)CO2 , state the outcome it received in this test.
Reply text: active

Inquiry: State the result this test recorded for CC(=O)Nc1ccc(-c2csc(Nc3cccc(-c4csc(C)n4)c3)n2)cc1 .
Reply text: inactive

###

tested on: SW-620 colon; assay: NCI tumour cell line growth inhibition, 48 h; in the data active means GI50 below about 0.43 µM; inactive means the rest
Please answer using one outcome listed in yes (1) (active), no (0) (inactive)

Inquiry: // return assay outcome for CN(C)C1CCN(C(=O)c2ccc(NC(=O)Nc3ccc(-c4nc(N5CCOCC5)c5cccn5n4)cc3)cc2)CC1
Reply text: yes (1)

Inquiry: State the result this test recorded for COc1cc(Cl)cc(-c2nn(-c3cccc(NC(=O)c4ccc(N5CCOCC5)c(C(F)(F)F)c4)c3)cc2-c2ccncc2)c1 .
Reply text: no (0)

Inquiry: Just curious, what result did O=c1c(F)cn(Cc2ccc(C34CC5CC(CC(C5)C3)C4)c(O)c2)c(=O)n1Cc1ccc(C23CC4CC(CC(C4)C2)C3)c(O)c1 get here?
Reply text: no (0)

Inquiry: What classification did N#Cc1nn(-c2cc(=O)[nH]c3ccc(Cl)cc23)c(N)c1C#N end up with in this test?
Reply text: no (0)

Inquiry: What outcome does the record of this test show for NC(N)=N/N=C/c1c(Cl)cccc1Cl ?
Reply text: no (0)

Inquiry: Give the logged outcome of this assay for the following molecule: NC1CCN(Cc2ccccc2)CC1
Reply text: no (0)

Inquiry: Please let me know the test result on file for O=c1oc2ccc(-c3ccc(F)cc3F)cc2c(=O)n1-c1cccc(C(F)(F)F)c1 .
Reply text: no (0)

Inquiry: Could you check what this test reported for CN(C)CC[C@H](CSc1ccccc1)Nc1ccc(S(=O)(=O)NC(=O)c2ccc(N3CCN(Cc4ccccc4-c4ccc(Cl)cc4)CC3)cc2)cc1[N+](=O)[O-] ?
Reply text: no (0)

Inquiry: // outcome(item) with item = O=C(c1ccco1)c1c(C(F)(F)F)nc2ccc(Cl)cc2[n+]1[O-]
Reply text: no (0)

Inquiry: // return assay outcome for Clc1cc2c(c(CSc3nc4ccccc4n4cccc34)c1)OCOC2
Reply text: no (0)
